Target: T1, cynomolgus monkey CD8 alpha on primary cynomolgus CD8+ T cells (cynomolgus monkey, UniProt P01732 23-235 (human entry))
T1 construct: also called Cyno CD8alpha; cyno CD8A
T1 sequence (P01732 other isoform, or with tags, fused parts or gaps limits assumed): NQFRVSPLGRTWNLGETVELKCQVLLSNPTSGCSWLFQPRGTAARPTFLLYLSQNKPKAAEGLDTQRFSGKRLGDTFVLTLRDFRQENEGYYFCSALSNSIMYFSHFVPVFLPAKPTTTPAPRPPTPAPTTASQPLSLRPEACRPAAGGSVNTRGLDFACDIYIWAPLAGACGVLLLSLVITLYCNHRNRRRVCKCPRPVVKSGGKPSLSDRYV
Assay: flow cytometry, cyno CD8+ T cells
PARAMETER MEASURED: Cyno T-cell Binding 0.2 uM (MFI)

Solved entries (count: 3):
P283DR9P1364_F6 (designed binder, FN3 domain) LPAPKNLVVSRVTEDSARLSWTAPDAAFDSFTIAYPEREQDKWGEAIVLTVPGSERSYDLTGLKPGTEYWVIIQGVKGGRPSTPLSAILTT | 3160
P283HR7P1368_H8 (designed binder, FN3 domain) LPAPKNLVVSRVTEDSARLSWTAPDAAFDSFGITYLDPRNGEAISLNVPGSERSYDLTGLKPGTEYWVVIIGVKGGINSYPLGASFTT | 4890
P283BR9P1363_F2 (designed binder, FN3 domain) LPAPKNLVVSRVTEDSARLSWYRPDNRAGAFDSFLIQYQESEKVGEAIVLTVPGSERSYDLTGLKPGTEYTVSIYGVDVKYDIDSRPISSNPLSAIFTT | 5280

I. P283DR9P1364_E8 (designed binder, FN3 domain) LPAPKNLVVSRVTEDSARLSWTAPDAAFDSFSIAYPEWPVHGEAIVLTVPGSERSYDLTGLKPGTEYFVIIYGVKGGVLSEPLSAIFTT
II. P283DR9P1364_G9 (designed binder, FN3 domain) LPAPKNLVVSRVTEDSARLSWTAPDAAFDSFGIWYPEWPVGGEAIVLTVPGSERSYDLTGLKPGTEYWVNISGVKGGEYSFPLSAIFTT
Prompt: // compare: I vs II , metric Cyno T-cell Binding 0.2 uM (MFI), want the smaller State the label of the item chosen.
Completion: II
(II: 2800 MFI, I: 5510 MFI)
